- experimental.target: Receptor tyrosine-protein kinase erbB-4 (Homo sapiens, UniProt Q15303)
- assay.overview: Inhibition of recombinant ERBB4 (unknown origin) using poly (Glu,Tyr) 4:1 as substrate after 60 mins by ELISA
pIC50: −log10 of the molar value.
measure: pIC50

[[record]]
compound_structure = "C=CC(=O)N1CC[C@H](n2cc(-c3cc4cc(C)cc(OC)c4s3)c3c(N)ncnc32)C1"
experimental_target = "Receptor tyrosine-protein kinase erbB-4 (Homo sapiens, UniProt Q15303)"
result = "< 6.00"


---

- experimental.target: Fibroblast growth factor receptor 3 (Homo sapiens, UniProt P22607)
- assay.overview: Inhibition of recombinant FGFR3 (unknown origin) using poly (Glu,Tyr) 4:1 as substrate after 60 mins by ELISA
pIC50: −log10 of the molar value.
measure: pIC50

[[record]]
compound_structure = "C=CC(=O)N1CC[C@H](n2cc(-c3cc4cc(C)cc(OC)c4s3)c3c(N)ncnc32)C1"
quantitative_result = 8.03


---

- experimental.target: Platelet-derived growth factor receptor beta (Homo sapiens, UniProt P09619)
- Sequence (P09619 whole entry): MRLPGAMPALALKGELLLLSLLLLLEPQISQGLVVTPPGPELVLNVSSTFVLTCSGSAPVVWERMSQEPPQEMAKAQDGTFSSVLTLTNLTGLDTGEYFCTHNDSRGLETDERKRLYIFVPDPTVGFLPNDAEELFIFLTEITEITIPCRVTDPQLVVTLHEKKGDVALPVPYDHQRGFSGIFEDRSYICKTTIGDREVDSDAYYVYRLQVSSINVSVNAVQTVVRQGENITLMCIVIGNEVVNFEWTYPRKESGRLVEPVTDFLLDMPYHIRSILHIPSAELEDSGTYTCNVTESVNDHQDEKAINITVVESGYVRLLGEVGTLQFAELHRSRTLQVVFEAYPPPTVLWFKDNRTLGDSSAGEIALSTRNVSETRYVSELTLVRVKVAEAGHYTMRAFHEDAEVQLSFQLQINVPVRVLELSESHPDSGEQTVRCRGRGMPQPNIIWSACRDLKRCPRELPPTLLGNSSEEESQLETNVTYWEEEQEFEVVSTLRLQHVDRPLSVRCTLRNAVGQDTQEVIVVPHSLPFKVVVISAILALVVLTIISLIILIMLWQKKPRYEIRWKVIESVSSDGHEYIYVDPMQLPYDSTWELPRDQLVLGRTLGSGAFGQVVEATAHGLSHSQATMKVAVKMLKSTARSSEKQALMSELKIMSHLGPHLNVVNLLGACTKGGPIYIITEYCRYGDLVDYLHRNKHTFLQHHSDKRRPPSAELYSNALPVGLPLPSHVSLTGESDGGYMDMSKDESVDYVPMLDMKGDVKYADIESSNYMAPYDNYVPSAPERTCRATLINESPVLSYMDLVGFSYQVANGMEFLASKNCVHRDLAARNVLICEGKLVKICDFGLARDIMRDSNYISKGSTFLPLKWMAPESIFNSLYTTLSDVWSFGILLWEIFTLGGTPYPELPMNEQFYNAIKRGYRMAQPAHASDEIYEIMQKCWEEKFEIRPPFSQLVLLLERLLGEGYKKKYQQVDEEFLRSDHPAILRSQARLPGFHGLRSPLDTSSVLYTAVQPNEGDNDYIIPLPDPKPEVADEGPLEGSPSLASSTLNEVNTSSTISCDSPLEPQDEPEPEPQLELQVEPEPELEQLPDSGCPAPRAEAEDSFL
- assay.overview: Inhibition of recombinant PDGFRbeta (unknown origin) using poly (Glu,Tyr) 4:1 as substrate after 60 mins by ELISA
measure: IC50

[[record]]
compound_structure = "C=CC(=O)N1CC[C@H](n2cc(-c3cc4cc(C)cc(OC)c4s3)c3c(N)ncnc32)C1"
result = "> 1000 nM"


---

- experimental.target: Hepatocyte growth factor receptor (Homo sapiens)
- Sequence (P08581 whole entry): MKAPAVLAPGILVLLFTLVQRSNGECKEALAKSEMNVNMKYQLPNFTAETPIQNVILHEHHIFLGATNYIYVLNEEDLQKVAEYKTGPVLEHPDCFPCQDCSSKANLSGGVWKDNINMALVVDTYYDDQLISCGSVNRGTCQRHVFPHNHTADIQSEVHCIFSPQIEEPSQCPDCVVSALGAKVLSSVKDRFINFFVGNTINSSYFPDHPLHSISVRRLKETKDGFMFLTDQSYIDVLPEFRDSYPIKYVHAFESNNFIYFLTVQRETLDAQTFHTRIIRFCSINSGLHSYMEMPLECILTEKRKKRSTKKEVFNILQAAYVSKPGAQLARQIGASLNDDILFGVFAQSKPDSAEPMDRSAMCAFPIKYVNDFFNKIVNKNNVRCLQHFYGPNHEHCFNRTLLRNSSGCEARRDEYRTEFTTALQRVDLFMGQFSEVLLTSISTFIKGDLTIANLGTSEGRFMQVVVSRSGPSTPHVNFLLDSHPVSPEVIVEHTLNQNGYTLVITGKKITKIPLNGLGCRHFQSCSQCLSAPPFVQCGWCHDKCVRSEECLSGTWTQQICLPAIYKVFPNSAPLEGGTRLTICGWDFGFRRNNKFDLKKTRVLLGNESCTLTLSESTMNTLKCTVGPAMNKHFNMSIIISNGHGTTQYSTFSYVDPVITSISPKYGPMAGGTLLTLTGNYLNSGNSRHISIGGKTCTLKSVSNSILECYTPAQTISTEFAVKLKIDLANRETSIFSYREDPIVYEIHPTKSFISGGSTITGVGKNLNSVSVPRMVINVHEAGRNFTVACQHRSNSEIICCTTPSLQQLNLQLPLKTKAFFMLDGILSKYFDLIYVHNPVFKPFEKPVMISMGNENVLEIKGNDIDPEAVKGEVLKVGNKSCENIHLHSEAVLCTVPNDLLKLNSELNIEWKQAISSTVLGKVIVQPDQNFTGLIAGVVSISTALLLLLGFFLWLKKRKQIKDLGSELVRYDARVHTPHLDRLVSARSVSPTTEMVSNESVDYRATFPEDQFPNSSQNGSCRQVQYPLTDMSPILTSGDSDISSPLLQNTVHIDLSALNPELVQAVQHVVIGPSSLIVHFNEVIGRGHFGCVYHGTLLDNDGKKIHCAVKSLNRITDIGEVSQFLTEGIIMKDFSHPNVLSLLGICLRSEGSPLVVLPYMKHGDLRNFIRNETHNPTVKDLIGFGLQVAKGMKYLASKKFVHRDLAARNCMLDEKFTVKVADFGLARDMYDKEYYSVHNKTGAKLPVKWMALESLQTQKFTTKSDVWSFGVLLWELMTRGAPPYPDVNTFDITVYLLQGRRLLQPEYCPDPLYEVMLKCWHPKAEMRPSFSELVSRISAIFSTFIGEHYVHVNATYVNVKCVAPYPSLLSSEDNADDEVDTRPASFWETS
- assay.overview: Inhibition of recombinant c-MET (unknown origin) using poly (Glu,Tyr) 4:1 as substrate after 60 mins by ELISA
measure: IC50

[[record]]
compound_structure = "C=CC(=O)N1CC[C@H](n2cc(-c3cc4cc(C)cc(OC)c4s3)c3c(N)ncnc32)C1"
experimental_target = "Hepatocyte growth factor receptor (Homo sapiens)"
result = "> 1000 nM"


---

- experimental.target: Tyrosine-protein kinase ABL1 (Homo sapiens, UniProt P00519)
- assay.overview: Inhibition of recombinant ABL (unknown origin) using poly (Glu,Tyr) 4:1 as substrate after 60 mins by ELISA
pIC50: −log10 of the molar value.
measure: pIC50

[[record]]
compound_structure = "C=CC(=O)N1CC[C@H](n2cc(-c3cc4cc(C)cc(OC)c4s3)c3c(N)ncnc32)C1"
result = "< 6.00"


---

- experimental.target: UniProtKB P21802
- assay.overview: Inhibition of recombinant FGFR2 (unknown origin) using poly (Glu,Tyr) 4:1 as substrate after 60 mins by ELISA
pIC50: −log10 of the molar value.
measure: pIC50

[[record]]
compound_structure = "C=CC(=O)N1CC[C@H](n2cc(-c3cc4cc(C)cc(OC)c4s3)c3c(N)ncnc32)C1"
measure = "pIC50"
quantitative_result = 9.10


---

- experimental.target: Fibroblast growth factor receptor 1 (Homo sapiens)
pIC50: −log10 of the molar value.
measure: pIC50

[[record]]
compound = "C=CC(=O)N1CCC(n2cc(-c3cc4cc(C)cc(OC)c4s3)c3c(N)ncnc32)C1 (stereo unspecified)"
measure = "pIC50"
result = "> 9.52"


---

- experimental.target: UniProtKB P22455
- assay.overview: Inhibition of recombinant FGFR4 (unknown origin) using poly (Glu,Tyr) 4:1 as substrate after 60 mins by ELISA
measure: IC50 (nM)

[[record]]
compound = "C=CC(=O)N1CCC(n2cc(-c3cc4cc(C)cc(OC)c4s3)c3c(NC)ncnc32)C1 (stereo not given)"
measure = "IC50"
value_prefix = ">"
quantitative_result = 100

[[record]]
compound = "C=CC(=O)N1CC[C@@H](n2cc(-c3cc4cc(C)cc(OC)c4s3)c3c(N)ncnc32)C1"
measure = "IC50"
value_prefix = "="
quantitative_result = 82.7

[[record]]
compound = "C=CC(=O)N1CC[C@H](n2cc(-c3cc4cc(C)cc(OC)c4s3)c3c(N)ncnc32)C1"
measure = "IC50"
value_prefix = "="
quantitative_result = 5.3

[[record]]
compound = "C=CC(=O)N1CC(n2cc(-c3cc4cc(C)cc(OC)c4o3)c3c(N)ncnc32)C1"
measure = "IC50"
value_prefix = ">"
quantitative_result = 1000

[[record]]
compound = "C=CC(=O)N1CCC(n2cc(-c3cc4cc(C)cc(OC)c4s3)c3c(N)ncnc32)C1 (stereo not given)"
measure = "IC50"
value_prefix = "="
quantitative_result = 6.2


---

- experimental.target: Proto-oncogene tyrosine-protein kinase Src (Homo sapiens, UniProt P12931)
- assay.overview: Inhibition of recombinant c-SRC (unknown origin) using poly (Glu,Tyr) 4:1 as substrate after 60 mins by ELISA
measure: IC50

[[record]]
compound_structure = "C=CC(=O)N1CC[C@H](n2cc(-c3cc4cc(C)cc(OC)c4s3)c3c(N)ncnc32)C1"
result = "> 1000 nM"


---

- experimental.target: Tyrosine-protein kinase BTK (Homo sapiens)
- assay.overview: Inhibition of recombinant BTK (unknown origin) using poly (Glu,Tyr) 4:1 as substrate after 60 mins by ELISA
pIC50: −log10 of the molar value.
measure: pIC50

[[record]]
compound_structure = "C=CC(=O)N1CC[C@H](n2cc(-c3cc4cc(C)cc(OC)c4s3)c3c(N)ncnc32)C1"
experimental_target = "Tyrosine-protein kinase BTK (Homo sapiens)"
measure = "pIC50"
result = "< 6.00"


---

pIC50 values for the molecules below.
- System: OPM-2
- assay.overview: cells
- test.conditions: Homo sapiens, OPM-2, 72 h
- Description: Antiproliferative activity against FGFR3 amplified human OPM2 cells after 72 hrs by CCK8 or MTT assay
pIC50: −log10 of the molar value.
measure: pIC50

[[record]]
compound_structure = "C=CC(=O)N1CC[C@H](n2cc(-c3cc4cc(C)cc(OC)c4s3)c3c(N)ncnc32)C1"
experimental_target = "OPM-2"
value_prefix = ">"
quantitative_result = 9.30

[[record]]
compound_structure = "COc1cc(CCc2cc(NC(=O)c3ccc(N4C[C@@H](C)N[C@@H](C)C4)cc3)n[nH]2)cc(OC)c1"
experimental_target = "OPM-2"
value_prefix = "="
quantitative_result = 7.08


---

- experimental.target: Ephrin type-A receptor 2 (Homo sapiens, UniProt P29317)
- Sequence (P29317 whole entry): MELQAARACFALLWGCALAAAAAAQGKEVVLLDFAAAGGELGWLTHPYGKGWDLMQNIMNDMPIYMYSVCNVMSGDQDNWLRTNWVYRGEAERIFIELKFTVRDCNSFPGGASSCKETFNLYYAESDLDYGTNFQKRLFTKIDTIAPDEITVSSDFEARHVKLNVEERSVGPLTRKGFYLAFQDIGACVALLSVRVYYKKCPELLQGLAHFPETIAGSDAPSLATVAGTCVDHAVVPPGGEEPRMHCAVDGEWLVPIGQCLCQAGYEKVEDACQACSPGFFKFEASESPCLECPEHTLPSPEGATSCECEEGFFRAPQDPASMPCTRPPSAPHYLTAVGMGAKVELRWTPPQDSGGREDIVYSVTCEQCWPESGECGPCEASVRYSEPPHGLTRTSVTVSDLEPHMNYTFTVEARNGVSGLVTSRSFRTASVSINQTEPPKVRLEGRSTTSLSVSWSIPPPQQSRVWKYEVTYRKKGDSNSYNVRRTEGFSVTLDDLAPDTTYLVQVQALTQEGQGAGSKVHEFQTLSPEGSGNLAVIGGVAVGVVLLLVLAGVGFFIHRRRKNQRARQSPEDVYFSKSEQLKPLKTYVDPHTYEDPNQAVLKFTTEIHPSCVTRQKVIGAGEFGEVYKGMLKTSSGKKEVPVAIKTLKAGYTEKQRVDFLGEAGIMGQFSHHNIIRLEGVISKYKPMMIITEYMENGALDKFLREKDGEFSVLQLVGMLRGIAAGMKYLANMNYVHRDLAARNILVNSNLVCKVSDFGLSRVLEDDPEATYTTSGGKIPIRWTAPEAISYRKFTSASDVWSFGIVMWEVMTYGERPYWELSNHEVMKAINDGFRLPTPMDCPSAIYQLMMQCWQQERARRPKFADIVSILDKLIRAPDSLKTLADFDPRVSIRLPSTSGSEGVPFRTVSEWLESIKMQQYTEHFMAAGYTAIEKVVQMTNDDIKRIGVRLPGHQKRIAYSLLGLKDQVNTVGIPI
- assay.overview: Inhibition of recombinant EPHA2 (unknown origin) using poly (Glu,Tyr) 4:1 as substrate after 60 mins by ELISA
measure: IC50

[[record]]
compound_structure = "C=CC(=O)N1CC[C@H](n2cc(-c3cc4cc(C)cc(OC)c4s3)c3c(N)ncnc32)C1"
result = "> 1000 nM"


---

- System: Huh-7
- assay.overview: cells
- test.conditions: Homo sapiens, Huh-7, 72 h
- Description: Antiproliferative activity against FGF19/FGFR4 expressing human HuH7 cells after 72 hrs by CCK8 or MTT assay
pIC50: −log10 of the molar value.
pIC50 listing for selected compounds.
measure: pIC50

[[record]]
compound_structure = "COc1cc(CCc2cc(NC(=O)c3ccc(N4C[C@@H](C)N[C@@H](C)C4)cc3)n[nH]2)cc(OC)c1"
value_prefix = "="
quantitative_result = 6.55

[[record]]
compound_structure = "C=CC(=O)N1CC[C@H](n2cc(-c3cc4cc(C)cc(OC)c4s3)c3c(N)ncnc32)C1"
value_prefix = ">"
quantitative_result = 8.82

[[record]]
compound_structure = "CCN1CCN(c2ccc(Nc3cc(N(C)C(=O)Nc4c(Cl)c(OC)cc(OC)c4Cl)ncn3)cc2)CC1"
value_prefix = "="
quantitative_result = 7.24


---

- assay.overview: AUC in Sprague-Dawley rat at 10 mg/kg, po administered via gavage by HPLC-MS/MS analysis
- Format: ADME, organism-based
- test.conditions: in vivo
Parameter AUC: see the listing below.
measure: AUC (ng·h/mL)

[[record]]
compound_structure = "C=CC(=O)N1CC(n2cc(-c3cc4cc(C)cc(OC)c4s3)c3c(N)ncnc32)C1"
measure = "AUC"
quantitative_result = 46.4

[[record]]
compound_structure = "C=CC(=O)N1CC[C@H](n2cc(-c3cc4cc(C)cc(OC)c4s3)c3c(N)ncnc32)C1"
measure = "AUC"
quantitative_result = 277


---

- experimental.target: Vascular endothelial growth factor receptor 2 (Homo sapiens, UniProt P35968)
- assay.overview: Inhibition of recombinant VEGFR2 (unknown origin) using poly (Glu,Tyr) 4:1 as substrate after 60 mins by ELISA
measure: IC50 (nM)

[[record]]
compound_structure = "C=CC(=O)N1CC[C@H](n2cc(-c3cc4cc(C)cc(OC)c4s3)c3c(N)ncnc32)C1"
quantitative_result = 113


---

- experimental.target: Epidermal growth factor receptor (Homo sapiens, UniProt P00533)
- Sequence (P00533 whole entry): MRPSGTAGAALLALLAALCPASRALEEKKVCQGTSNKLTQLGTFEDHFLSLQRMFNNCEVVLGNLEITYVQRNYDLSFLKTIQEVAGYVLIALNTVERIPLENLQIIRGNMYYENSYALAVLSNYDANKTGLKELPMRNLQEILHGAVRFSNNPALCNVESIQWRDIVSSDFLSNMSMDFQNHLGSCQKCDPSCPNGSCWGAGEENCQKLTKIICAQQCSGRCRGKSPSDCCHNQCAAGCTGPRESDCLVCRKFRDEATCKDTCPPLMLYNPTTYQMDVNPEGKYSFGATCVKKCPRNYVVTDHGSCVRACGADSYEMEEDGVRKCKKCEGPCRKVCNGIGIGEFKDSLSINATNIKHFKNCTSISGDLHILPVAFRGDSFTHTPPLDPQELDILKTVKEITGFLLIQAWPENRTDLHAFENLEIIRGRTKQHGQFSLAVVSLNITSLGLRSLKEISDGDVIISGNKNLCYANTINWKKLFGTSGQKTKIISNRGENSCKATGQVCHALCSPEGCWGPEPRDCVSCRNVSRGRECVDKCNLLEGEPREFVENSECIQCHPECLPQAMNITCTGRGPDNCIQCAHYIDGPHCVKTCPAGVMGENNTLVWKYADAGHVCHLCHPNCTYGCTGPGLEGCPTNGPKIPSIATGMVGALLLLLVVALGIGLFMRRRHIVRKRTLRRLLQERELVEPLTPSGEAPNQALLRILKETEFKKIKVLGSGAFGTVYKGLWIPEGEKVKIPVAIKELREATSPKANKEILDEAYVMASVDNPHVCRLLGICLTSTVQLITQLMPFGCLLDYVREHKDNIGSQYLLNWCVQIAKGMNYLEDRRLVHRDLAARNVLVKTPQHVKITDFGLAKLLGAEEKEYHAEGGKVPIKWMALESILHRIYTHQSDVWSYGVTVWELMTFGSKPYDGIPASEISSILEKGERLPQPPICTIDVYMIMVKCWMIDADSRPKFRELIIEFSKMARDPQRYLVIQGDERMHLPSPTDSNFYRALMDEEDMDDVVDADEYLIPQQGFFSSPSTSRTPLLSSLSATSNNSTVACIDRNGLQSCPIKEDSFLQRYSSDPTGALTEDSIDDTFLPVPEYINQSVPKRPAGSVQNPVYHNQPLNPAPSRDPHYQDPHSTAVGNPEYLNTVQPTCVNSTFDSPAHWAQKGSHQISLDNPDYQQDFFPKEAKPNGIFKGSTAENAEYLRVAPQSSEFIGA
- assay.overview: Inhibition of recombinant EGFR (unknown origin) using poly (Glu,Tyr) 4:1 as substrate after 60 mins by ELISA
measure: IC50

[[record]]
compound_structure = "C=CC(=O)N1CC[C@H](n2cc(-c3cc4cc(C)cc(OC)c4s3)c3c(N)ncnc32)C1"
result = "> 1000 nM"


---

- experimental.target: Platelet-derived growth factor receptor alpha (Homo sapiens, UniProt P16234)
- assay.overview: Inhibition of recombinant PDGFRalpha (unknown origin) using poly (Glu,Tyr) 4:1 as substrate after 60 mins by ELISA
measure: IC50

[[record]]
compound_structure = "C=CC(=O)N1CC[C@H](n2cc(-c3cc4cc(C)cc(OC)c4s3)c3c(N)ncnc32)C1"
measure = "IC50"
result = "> 1000 nM"

